target: UniProtKB Q8INQ6; experiment: Ca2+ fluorimetry (Fluo-4), antagonists on serotonin-stimulated Dm5-HT2B-expressing HEK 293 cells; assay type: cell-based; conditions: Log IC50 ± SD, logarithm of the IC50 (M); background of 10^-7 M serotonin
VALUE_TYPE: IC50 (M)
Give the value, in units of M, as a plain number.

INPUT: Let me know recorded IC50 for CSc1ccc2c(c1)C(N1CCN(C)CC1)Cc1ccccc1S2 (stereo not shown) [Metitepine, metitepine] , thanks.
OUTPUT: 3.55e-06

====

target: Dm5-HT2B (Drosophila melanogaster); assay: Ca2+ fluorimetry (Fluo-4), antagonists on serotonin-stimulated Dm5-HT2B-expressing HEK 293 cells; format: cell-based; conditions: background of 10^-7 M serotonin; Dm5-HT2B-expressing HEK 293 cells; read-out: IC50
Sequence (Q8INQ6 entry or part of it): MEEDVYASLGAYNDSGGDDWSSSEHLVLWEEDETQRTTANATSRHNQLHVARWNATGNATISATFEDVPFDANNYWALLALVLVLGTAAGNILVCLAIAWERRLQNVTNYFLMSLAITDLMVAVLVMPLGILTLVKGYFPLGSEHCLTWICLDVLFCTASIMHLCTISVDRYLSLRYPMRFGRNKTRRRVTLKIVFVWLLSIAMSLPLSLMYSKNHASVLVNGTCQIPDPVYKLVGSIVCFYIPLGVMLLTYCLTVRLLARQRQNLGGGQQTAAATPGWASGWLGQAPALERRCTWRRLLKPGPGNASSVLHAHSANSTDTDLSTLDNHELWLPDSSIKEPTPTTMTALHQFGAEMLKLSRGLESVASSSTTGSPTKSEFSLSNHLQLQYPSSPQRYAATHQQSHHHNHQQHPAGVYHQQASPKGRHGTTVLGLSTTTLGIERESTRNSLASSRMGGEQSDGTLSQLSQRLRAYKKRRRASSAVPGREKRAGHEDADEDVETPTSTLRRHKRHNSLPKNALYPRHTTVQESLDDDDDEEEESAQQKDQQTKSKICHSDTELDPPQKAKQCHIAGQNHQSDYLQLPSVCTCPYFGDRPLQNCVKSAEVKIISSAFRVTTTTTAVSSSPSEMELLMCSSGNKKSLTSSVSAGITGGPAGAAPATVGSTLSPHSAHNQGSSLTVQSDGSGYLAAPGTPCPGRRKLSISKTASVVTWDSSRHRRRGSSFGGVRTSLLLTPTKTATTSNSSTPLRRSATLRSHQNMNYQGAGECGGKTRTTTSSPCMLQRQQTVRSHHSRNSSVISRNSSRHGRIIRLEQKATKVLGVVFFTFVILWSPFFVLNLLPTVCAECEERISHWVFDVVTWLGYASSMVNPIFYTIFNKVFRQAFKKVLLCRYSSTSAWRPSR
VALUE_TYPE: IC50 (µM)
Give the value, in units of µM, as a plain number.

INPUT: Let me know recorded IC50 for CCN(CC)CCNC(=O)c1cc(Cl)c(N)cc1OC [Metoclopramide, metoclopramide] , thanks.
OUTPUT: 0.0159
